Assign Ratio Ki to each entry below.
# Species: Homo sapiens
# METHOD_DESCRIPTION: Selectivity ratio of Ki for human NET to Ki for human DAT
# print the numeric value only

Qu. Which measured Ratio Ki value corresponds to CN1C2CCC1[C@@H](C(=O)OCc1cn(CCCCCCOC(=O)[C@H]3C4CCC(C[C@@H]3c3ccc(Cl)cc3)N4C)nn1)[C@@H](c1ccc(Cl)cc1)C2 (some centres undefined) ?
Ans. 8.5

Qu. Which measured Ratio Ki value corresponds to CN1C2CCC1[C@@H](C(=O)Nc1ccc(CCNC(=O)[C@H]3C4CCC(C[C@@H]3c3ccc(Cl)cc3)N4C)cc1)[C@@H](c1ccc(Cl)cc1)C2 (some centres undefined) ?
Ans. 27

Qu. Which measured Ratio Ki value corresponds to CN1C2CCC1[C@@H](C(=O)Nc1ccc(CCNC(=O)[C@H]3C4CCC(C[C@@H]3c3ccc(-c5ccsc5)cc3)N4C)cc1)[C@@H](c1ccc(-c3ccsc3)cc1)C2 (some centres undefined) ?
Ans. 4.6

Qu. Which measured Ratio Ki value corresponds to CN1C2CCC1[C@@H](C(=O)NCc1cccc(CNC(=O)[C@H]3C4CCC(C[C@@H]3c3ccc(-c5ccsc5)cc3)N4C)c1)[C@@H](c1ccc(-c3ccsc3)cc1)C2 ?
Ans. 5.1

Qu. Which measured Ratio Ki value corresponds to CN1C2CCC1[C@@H](C(=O)N[C@H]1CC[C@H](NC(=O)[C@H]3C4CCC(C[C@@H]3c3ccc(-c5ccsc5)cc3)N4C)CC1)[C@@H](c1ccc(-c3ccsc3)cc1)C2 ?
Ans. 3.8

Qu. Which measured Ratio Ki value corresponds to CN1C2CCC1[C@@H](C(=O)NCc1ccc(CCNC(=O)[C@H]3C4CCC(C[C@@H]3c3ccc(-c5ccsc5)cc3)N4C)cc1)[C@@H](c1ccc(-c3ccsc3)cc1)C2 (some centres undefined) ?
Ans. 8.2

Qu. Which measured Ratio Ki value corresponds to CN1C2CCC1[C@@H](C(=O)OCc1cn(CCCCCCCOC(=O)[C@H]3C4CCC(C[C@@H]3c3ccc(Cl)cc3)N4C)nn1)[C@@H](c1ccc(Cl)cc1)C2 (some centres undefined) ?
Ans. 5.1

Qu. Which measured Ratio Ki value corresponds to CN1C2CCC1[C@@H](C(=O)NCCCCCCCCNC(=O)[C@H]1C3CCC(C[C@@H]1c1ccc(-c4ccsc4)cc1)N3C)[C@@H](c1ccc(-c3ccsc3)cc1)C2 ?
Ans. 2.4

Qu. Which measured Ratio Ki value corresponds to CN1C2CCC1[C@@H](C(=O)Nc1ccc(NC(=O)[C@H]3C4CCC(C[C@@H]3c3ccc(Cl)cc3)N4C)cc1)[C@@H](c1ccc(Cl)cc1)C2 ?
Ans. 7.8
